Every entry's value here was drawn from patent US10273237B2.

Test system: IL-23-stimulated Kit225 T cells with STAT-dependent luciferase reporter
experimental protocol: Kit225 T cell assay, STAT-dependent luciferase reporter, IL-23 stimulated
Format: cell-based, human
assay conditions: Homo sapiens, KIT225, 20 ng/mL human recombinant IL-23, 5-6 hours, read-out: IL-23 Kit225 Reporter, LE (IC50)
recorded endpoint: IC50 (nM)

Reference set (3 entries):
>>> value_reported("CCC(=O)N1CCC(n2cccc(Nc3cc(NC)c4ncc(C(=O)NC5CC5)n4n3)c2=O)CC1")
500
>>> value_reported("CNc1cc(Nc2cc(F)cn(-c3ccc(C)nn3)c2=O)nn2c(C(=O)NC3CCC3)cnc12")
90
>>> value_reported("CNc1cc(Nc2cccn(-c3ccccn3)c2=O)nn2c(C(=O)NCCF)cnc12")
140

(I) CNc1cc(Nc2cccn(-c3cnc(C(=O)N(C)C)cn3)c2=O)nn2c(C(=O)NCC(C)(C)CO)cnc12
(II) CNc1cc(Nc2cccn(-c3ccc(S(C)(=O)=O)cc3)c2=O)nn2c(C(=O)NC3CC3)cnc12
Between I and II , whose recorded IC50 is greater? Answer with the label corresponding to your selection. II
(II: 350 nM, I: 90 nM)

(a) CNc1cc(Nc2cccn(-c3cccc(C(C)O)n3)c2=O)nn2c(C(=O)NC3CC3)cnc12 (stereo not shown)
(b) CCC(CC)CNC(=O)c1cnc2c(NC)cc(Nc3cccn(-c4ccccc4)c3=O)nn12
(c) CCOc1ccc(-n2cccc(Nc3cc(NC)c4ncc(C(=O)N[C@@H]5C[C@@H]5F)n4n3)c2=O)nn1
Sort these compounds on IC50 so the largest reading comes first. Please respond with the labels ordered as the question requires. a, b, c
(a: 340 nM, b: 220 nM, c: 10 nM)

(A) CNc1cc(Nc2cccn(-c3ccccc3)c2=O)nn2c(C(=O)N[C@@H]3CCOC3)cnc12
(B) CCn1cc(Cl)cc(Nc2cc(NC)c3ncc(C(=O)NC4CC4)n3n2)c1=O
(C) CNc1cc(Nc2cccn(-c3ccc(C(F)F)cc3)c2=O)nn2c(C(=O)NCC(C)(C)CO)cnc12
(D) CNc1cc(Nc2cccn(C3CCN(C(=O)C4CCCO4)CC3)c2=O)nn2c(C(=O)NC3CC3)cnc12 (stereo not shown)
# sort list by recorded IC50, greatest to least Give the labels in the order requested. D, A, C, B
(D: 420 nM, A: 270 nM, C: 150 nM, B: 50 nM)

(A) CNc1cc(Nc2cccn(-c3ccccc3)c2=O)nn2c(C(=O)N[C@H]3CCCC[C@H]3O)cnc12
(B) CNc1cc(Nc2cccn(-c3ccc(C#N)cc3)c2=O)nn2c(C(=O)NCC(C)(C)CO)cnc12
Smaller IC50 value, A vs B ? Select an item and report its label. A

(I) CNc1cc(Nc2cccn(-c3ccccn3)c2=O)nn2c(C(=O)NCC(C)(C)CO)cnc12
(II) CNc1cc(Nc2cccn(-c3cccc(C(C)O)n3)c2=O)nn2c(C(=O)NC3CCC3)cnc12 (stereo not shown)
Which has the higher IC50, I or II ? Reply with the label of the item you choose. I
(I: 60 nM, II: 30 nM)
